Reported pIC50 by item:
Target: Dual specificity tyrosine-phosphorylation-regulated kinase 1A (Rattus norvegicus, UniProt Q63470)
Test: Inhibition of rat recombinant GST-tagged DYRK1A using KKISGRLSPIMTEQ as substrate and [gamma32]-ATP after 30 mins by scintillation counting
pIC50: −log10 of the molar value.

>  <input-smiles>
CN1C(=O)/C(=C/c2ccc3c(c2)OCO3)N=C1NC1CCCC1

>  <pIC50>
5.43

$$$$
>  <input-smiles>
CN1C(=O)/C(=C/c2ccc3c(c2)OCO3)N=C1NCc1ccccc1

>  <pIC50>
6.42

$$$$
>  <input-smiles>
CN1C(=O)/C(=C/c2ccc3c(c2)OCO3)N=C1NCCCO

>  <pIC50>
6.55

$$$$
>  <input-smiles>
O=C1NC(Nc2ccccc2)=N/C1=C\c1ccc2c(c1)OCO2

>  <pIC50>
7.40

$$$$
>  <input-smiles>
CN1C(=O)/C(=C/c2ccc3c(c2)OCO3)N=C1NCc1ccc2c(c1)OCO2

>  <pIC50>
5.49

$$$$
>  <input-smiles>
CCOC(=O)C(=O)NC1=N/C(=C\c2ccc3c(c2)OCO3)C(=O)N1C

>  <pIC50>
5.21

$$$$

---

Molecular target: UniProtKB Q63470
Experiment: Inhibition of rat recombinant GST-tagged DYRK1A using KKISGRLSPIMTEQ as substrate and [gamma32]-ATP after 30 mins by scintillation counting
Reported IC50 by item:
readout-kind: IC50 (nM)

>  <input-smiles>
COc1ccc(NC2=N/C(=C\c3ccc4c(c3)OCO4)C(=O)N2)cc1

>  <number>
110

$$$$
>  <input-smiles>
CCCNC1=N/C(=C\c2ccc3c(c2)OCO3)C(=O)N1C

>  <number>
540

$$$$
>  <input-smiles>
COc1ccc(NC2=N/C(=C\c3ccc4c(c3)OCO4)C(=O)N2C)cc1

>  <number>
240

$$$$

---

Target: Dual specificity protein kinase CLK3 (Mus musculus, UniProt O35492)
Sequence (O35492 whole entry): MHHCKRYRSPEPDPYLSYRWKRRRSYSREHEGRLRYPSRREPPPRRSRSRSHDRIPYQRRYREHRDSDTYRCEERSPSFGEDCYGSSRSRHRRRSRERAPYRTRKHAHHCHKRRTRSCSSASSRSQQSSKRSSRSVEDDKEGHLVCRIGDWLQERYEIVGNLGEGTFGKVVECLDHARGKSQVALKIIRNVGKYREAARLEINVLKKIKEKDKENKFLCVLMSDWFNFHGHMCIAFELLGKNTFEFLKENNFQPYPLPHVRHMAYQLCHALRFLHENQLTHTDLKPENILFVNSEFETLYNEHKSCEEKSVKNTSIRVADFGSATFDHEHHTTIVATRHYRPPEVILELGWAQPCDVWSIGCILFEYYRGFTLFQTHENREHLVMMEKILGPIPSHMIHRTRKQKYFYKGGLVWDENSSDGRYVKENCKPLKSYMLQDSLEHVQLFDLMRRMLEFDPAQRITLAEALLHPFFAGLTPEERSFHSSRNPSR
Assay: Inhibition of mouse recombinant GST-tagged CLK3 using GRSRSRSRSRSR as substrate
In plain terms, low IC50, meaning strictly below 2 µM, gives yes (1), and everything else gives no (0).

>  <input-smiles>
O=C1NC(Nc2ccccc2)=N/C1=C\c1ccc2c(c1)OCO2

>  <target-of-assay>
Dual specificity protein kinase CLK3 (Mus musculus, UniProt O35492)

>  <label-class>
no (0)

$$$$
>  <input-smiles>
CCNC1=N/C(=C\c2ccc3c(c2)OCO3)C(=O)N1

>  <target-of-assay>
Dual specificity protein kinase CLK3 (Mus musculus, UniProt O35492)

>  <label-class>
no (0)

$$$$
>  <input-smiles>
CN1C(=O)/C(=C/c2ccc3c(c2)OCO3)N=C1Nc1ccccc1

>  <target-of-assay>
Dual specificity protein kinase CLK3 (Mus musculus, UniProt O35492)

>  <label-class>
no (0)

$$$$
>  <input-smiles>
CN1C(=O)/C(=C/c2ccc3c(c2)OCO3)N=C1NCCN

>  <target-of-assay>
Dual specificity protein kinase CLK3 (Mus musculus, UniProt O35492)

>  <label-class>
no (0)

$$$$
>  <input-smiles>
CN1C(=O)/C(=C/c2ccc3c(c2)OCO3)N=C1NC1CCCC1

>  <target-of-assay>
Dual specificity protein kinase CLK3 (Mus musculus, UniProt O35492)

>  <label-class>
no (0)

$$$$
>  <input-smiles>
CN1C(=O)/C(=C/c2ccc3c(c2)OCO3)N=C1NCC1CC1

>  <target-of-assay>
Dual specificity protein kinase CLK3 (Mus musculus, UniProt O35492)

>  <label-class>
yes (1)

$$$$
>  <input-smiles>
COCCNC1=N/C(=C\c2ccc3c(c2)OCO3)C(=O)N1C

>  <target-of-assay>
Dual specificity protein kinase CLK3 (Mus musculus, UniProt O35492)

>  <label-class>
no (0)

$$$$
>  <input-smiles>
CC(C)CCNC1=N/C(=C\c2ccc3c(c2)OCO3)C(=O)N1C

>  <target-of-assay>
Dual specificity protein kinase CLK3 (Mus musculus, UniProt O35492)

>  <label-class>
yes (1)

$$$$
>  <input-smiles>
CN1C(=O)/C(=C/c2ccc3c(c2)OCO3)N=C1NCc1ccccc1

>  <target-of-assay>
Dual specificity protein kinase CLK3 (Mus musculus, UniProt O35492)

>  <label-class>
yes (1)

$$$$
>  <input-smiles>
CCCNC1=N/C(=C\c2ccc(Br)cc2)C(=O)N1C

>  <target-of-assay>
Dual specificity protein kinase CLK3 (Mus musculus, UniProt O35492)

>  <label-class>
no (0)

$$$$
>  <input-smiles>
CN1C(=O)/C(=C/c2ccc3c(c2)OCO3)N=C1NCCCO

>  <target-of-assay>
Dual specificity protein kinase CLK3 (Mus musculus, UniProt O35492)

>  <label-class>
no (0)

$$$$
>  <input-smiles>
CCCNC1=N/C(=C\c2ccc3c(c2)OCO3)C(=O)N1

>  <target-of-assay>
Dual specificity protein kinase CLK3 (Mus musculus, UniProt O35492)

>  <label-class>
no (0)

$$$$
>  <input-smiles>
O=C1NC(Nc2ccc(O)cc2)=N/C1=C\c1ccc2c(c1)OCO2

>  <target-of-assay>
Dual specificity protein kinase CLK3 (Mus musculus, UniProt O35492)

>  <label-class>
yes (1)

$$$$
>  <input-smiles>
CNC1=N/C(=C\c2ccc3c(c2)OCO3)C(=O)N1C

>  <target-of-assay>
Dual specificity protein kinase CLK3 (Mus musculus, UniProt O35492)

>  <label-class>
no (0)

$$$$
>  <input-smiles>
CCCNC1=N/C(=C\c2ccc3c(c2)OCO3)C(=O)N1C

>  <target-of-assay>
Dual specificity protein kinase CLK3 (Mus musculus, UniProt O35492)

>  <label-class>
yes (1)

$$$$
>  <input-smiles>
CC(=O)NC1=N/C(=C\c2ccc3c(c2)OCO3)C(=O)N1C

>  <target-of-assay>
Dual specificity protein kinase CLK3 (Mus musculus, UniProt O35492)

>  <label-class>
no (0)

$$$$
>  <input-smiles>
CCOC(=O)C(=O)NC1=N/C(=C\c2ccc3c(c2)OCO3)C(=O)N1C

>  <target-of-assay>
Dual specificity protein kinase CLK3 (Mus musculus, UniProt O35492)

>  <label-class>
no (0)

$$$$
>  <input-smiles>
CN1C(=O)/C(=C/c2ccc3c(c2)OCO3)N=C1NCCN1CCOCC1

>  <target-of-assay>
Dual specificity protein kinase CLK3 (Mus musculus, UniProt O35492)

>  <label-class>
no (0)

$$$$
>  <input-smiles>
CN1C(=O)/C(=C/c2ccc3c(c2)OCO3)N=C1NCc1ccc2c(c1)OCO2

>  <target-of-assay>
Dual specificity protein kinase CLK3 (Mus musculus, UniProt O35492)

>  <label-class>
no (0)

$$$$
>  <input-smiles>
C=CCNC1=N/C(=C\c2ccc3c(c2)OCO3)C(=O)N1C

>  <target-of-assay>
Dual specificity protein kinase CLK3 (Mus musculus, UniProt O35492)

>  <label-class>
yes (1)

$$$$
>  <input-smiles>
CN1C(=O)/C(=C/c2ccc3c(c2)OCO3)N=C1Nc1ccc(O)cc1

>  <target-of-assay>
Dual specificity protein kinase CLK3 (Mus musculus, UniProt O35492)

>  <label-class>
no (0)

$$$$
>  <input-smiles>
O=C1NC(NCC2CC2)=N/C1=C\c1ccc2c(c1)OCO2

>  <target-of-assay>
Dual specificity protein kinase CLK3 (Mus musculus, UniProt O35492)

>  <label-class>
yes (1)

$$$$
>  <input-smiles>
CC(C)CNC1=N/C(=C\c2ccc3c(c2)OCO3)C(=O)N1C

>  <target-of-assay>
Dual specificity protein kinase CLK3 (Mus musculus, UniProt O35492)

>  <label-class>
yes (1)

$$$$
>  <input-smiles>
CN1C(=O)/C(=C/c2ccc3c(c2)OCO3)N=C1NCCCCCO

>  <target-of-assay>
Dual specificity protein kinase CLK3 (Mus musculus, UniProt O35492)

>  <label-class>
no (0)

$$$$
>  <input-smiles>
CCCCNC1=N/C(=C\c2ccc3c(c2)OCO3)C(=O)N1C

>  <target-of-assay>
Dual specificity protein kinase CLK3 (Mus musculus, UniProt O35492)

>  <label-class>
yes (1)

$$$$
>  <input-smiles>
Cc1ccc(NC2=N/C(=C\c3ccc4c(c3)OCO4)C(=O)N2)cc1

>  <target-of-assay>
Dual specificity protein kinase CLK3 (Mus musculus, UniProt O35492)

>  <label-class>
no (0)

$$$$
>  <input-smiles>
O=C1NC(Nc2ccc3c(c2)OCO3)=N/C1=C\c1ccc2c(c1)OCO2

>  <target-of-assay>
Dual specificity protein kinase CLK3 (Mus musculus, UniProt O35492)

>  <label-class>
yes (1)

$$$$
>  <input-smiles>
COc1ccc(NC2=N/C(=C\c3ccc4c(c3)OCO4)C(=O)N2)cc1

>  <target-of-assay>
Dual specificity protein kinase CLK3 (Mus musculus, UniProt O35492)

>  <label-class>
no (0)

$$$$
>  <input-smiles>
COc1ccc(NC2=N/C(=C\c3ccc4c(c3)OCO4)C(=O)N2C)cc1

>  <target-of-assay>
Dual specificity protein kinase CLK3 (Mus musculus, UniProt O35492)

>  <label-class>
no (0)

$$$$
>  <input-smiles>
O=C1NC(Nc2ccc3c(c2)OCCO3)=N/C1=C\c1ccc2c(c1)OCO2

>  <target-of-assay>
Dual specificity protein kinase CLK3 (Mus musculus, UniProt O35492)

>  <label-class>
no (0)

$$$$
>  <input-smiles>
CN1C(=O)/C(=C/c2ccc3c(c2)OCO3)N=C1Nc1ccc2c(c1)OCO2

>  <target-of-assay>
Dual specificity protein kinase CLK3 (Mus musculus, UniProt O35492)

>  <label-class>
no (0)

$$$$
>  <input-smiles>
CN1C(=O)/C(=C/c2ccc3c(c2)OCO3)N=C1N

>  <target-of-assay>
Dual specificity protein kinase CLK3 (Mus musculus, UniProt O35492)

>  <label-class>
no (0)

$$$$
>  <input-smiles>
CCCNC1=N/C(=C\c2ccc3c(c2)OCO3)C(=O)N1c1ccccc1

>  <target-of-assay>
Dual specificity protein kinase CLK3 (Mus musculus, UniProt O35492)

>  <label-class>
no (0)

$$$$
>  <input-smiles>
CCNC1=N/C(=C\c2ccc3c(c2)OCO3)C(=O)N1C

>  <target-of-assay>
Dual specificity protein kinase CLK3 (Mus musculus, UniProt O35492)

>  <label-class>
no (0)

$$$$
>  <input-smiles>
CN1C(=O)/C(=C/c2ccc3c(c2)OCO3)N=C1NCCO

>  <target-of-assay>
Dual specificity protein kinase CLK3 (Mus musculus, UniProt O35492)

>  <label-class>
no (0)

$$$$
>  <input-smiles>
CCCNC1=N/C(=C\c2ccccc2O)C(=O)N1C

>  <target-of-assay>
Dual specificity protein kinase CLK3 (Mus musculus, UniProt O35492)

>  <label-class>
no (0)

$$$$
>  <input-smiles>
CN1C(=O)/C(=C/c2ccc3c(c2)OCO3)N=C1Nc1ccc2c(c1)OCCO2

>  <target-of-assay>
Dual specificity protein kinase CLK3 (Mus musculus, UniProt O35492)

>  <label-class>
no (0)

$$$$
